- assayed-system: T1, AXLECDHis (extracellular domain of human AXL) (Homo sapiens, UniProt P30530)
- T1 construct: the extracellular domain (ECD) of human AXL (aa 1-447) with a C-terminal His tag (AXLECDHis); His tag (C); made in house; host or cells: HEK-293F
- T1 sequence (P30530 26-447): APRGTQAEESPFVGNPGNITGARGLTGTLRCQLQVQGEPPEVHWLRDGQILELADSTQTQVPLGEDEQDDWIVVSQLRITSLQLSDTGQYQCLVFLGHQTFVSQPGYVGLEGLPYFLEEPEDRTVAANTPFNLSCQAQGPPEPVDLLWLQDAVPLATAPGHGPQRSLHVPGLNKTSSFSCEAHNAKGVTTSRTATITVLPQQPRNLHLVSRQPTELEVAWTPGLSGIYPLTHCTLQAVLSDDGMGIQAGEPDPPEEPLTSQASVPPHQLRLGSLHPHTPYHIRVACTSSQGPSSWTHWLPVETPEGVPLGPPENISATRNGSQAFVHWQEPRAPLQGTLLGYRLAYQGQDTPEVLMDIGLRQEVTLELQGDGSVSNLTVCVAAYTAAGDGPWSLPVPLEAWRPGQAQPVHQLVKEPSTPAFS
- measurement-notes: Binding affinity by Bio-Layer Interferometry (Octet)
- recorded-conditions: soluble AXLECDHis, 30° C, 1:1 model
Marks after values point to notes of the source that are not given here.

- molecule: "IgG1-AXL-726-M101L: point mutant of IgG1-AXL-726, VH SEQ ID NO:32, VL SEQ ID NO:33 (antibody, V domains shown, homo sapiens) VH: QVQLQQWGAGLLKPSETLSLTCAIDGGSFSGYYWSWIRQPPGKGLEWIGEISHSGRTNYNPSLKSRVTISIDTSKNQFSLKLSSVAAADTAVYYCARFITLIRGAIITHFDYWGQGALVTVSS VL: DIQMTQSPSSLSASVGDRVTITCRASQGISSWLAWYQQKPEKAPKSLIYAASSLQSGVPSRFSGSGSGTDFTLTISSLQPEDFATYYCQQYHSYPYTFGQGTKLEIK"
  Kon: "210000 M⁻¹ s⁻¹"
- molecule: "IgG1-AXL-183: human IgG1,κ anti-AXL antibody, VH SEQ ID NO:16, VL SEQ ID NO:18; FN1 domain binding (antibody, V domains shown, homo sapiens) VH: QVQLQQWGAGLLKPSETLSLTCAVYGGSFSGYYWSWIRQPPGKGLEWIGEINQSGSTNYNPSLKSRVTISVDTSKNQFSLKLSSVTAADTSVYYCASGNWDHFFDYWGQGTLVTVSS VL: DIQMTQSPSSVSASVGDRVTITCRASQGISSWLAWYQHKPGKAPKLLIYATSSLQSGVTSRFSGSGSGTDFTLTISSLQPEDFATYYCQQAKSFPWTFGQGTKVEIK"
  Kon: "41000 M⁻¹ s⁻¹"
- molecule: "IgG1-AXL-726: human IgG1,κ anti-AXL antibody, VH SEQ ID NO:31, VL SEQ ID NO:33; FN2 domain binding (antibody, V domains shown, homo sapiens) VH: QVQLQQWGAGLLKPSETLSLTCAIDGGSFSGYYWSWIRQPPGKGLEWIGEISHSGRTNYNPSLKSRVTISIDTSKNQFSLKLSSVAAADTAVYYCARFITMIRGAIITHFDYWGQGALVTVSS VL: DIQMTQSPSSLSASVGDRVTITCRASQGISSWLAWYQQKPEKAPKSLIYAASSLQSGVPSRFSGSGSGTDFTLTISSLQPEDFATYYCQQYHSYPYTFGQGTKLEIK"
  Kon: "240000 M⁻¹ s⁻¹"
- molecule: "IgG1-AXL-733: human IgG1,κ anti-AXL antibody, VH SEQ ID NO:34, VL SEQ ID NO:35; FN1 domain binding (antibody, V domains shown, homo sapiens) VH: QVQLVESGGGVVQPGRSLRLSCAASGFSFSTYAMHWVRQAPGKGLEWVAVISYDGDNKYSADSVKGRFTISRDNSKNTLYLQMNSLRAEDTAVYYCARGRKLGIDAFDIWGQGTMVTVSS VL: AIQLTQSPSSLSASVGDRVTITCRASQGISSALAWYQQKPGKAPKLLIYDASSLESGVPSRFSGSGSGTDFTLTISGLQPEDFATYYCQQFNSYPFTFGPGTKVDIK"
  Kon: "160000 M⁻¹ s⁻¹"
- molecule: "IgG1-AXL-183-N52Q: point mutant of IgG1-AXL-183, VH SEQ ID NO:17, VL SEQ ID NO:18 (antibody, V domains shown, homo sapiens) VH: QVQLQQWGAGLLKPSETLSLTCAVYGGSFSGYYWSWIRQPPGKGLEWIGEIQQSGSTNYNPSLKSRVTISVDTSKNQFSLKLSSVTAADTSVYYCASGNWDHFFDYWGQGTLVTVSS VL: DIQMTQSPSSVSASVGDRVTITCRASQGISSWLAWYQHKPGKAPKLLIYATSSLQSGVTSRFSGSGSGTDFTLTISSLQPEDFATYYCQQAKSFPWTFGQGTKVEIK"
  Kon: "42000 M⁻¹ s⁻¹"
